Reference source for all entries: ChEMBL document CHEMBL4823277

- Test system: Acinetobacter baumannii
- assay-method-text: Antibacterial activity against Acinetobacter baumannii by microbroth dilution method
- Type: functional
Sorting guide: entries reporting MIC beneath 300 µM go in the Fulfilled pile, the rest go in the Not fulfilled pile.

O=C(/C(=C/c1ccc([N+](=O)[O-])cc1)Oc1ccc2c(CN(CCO)CCO)cc(=O)oc2c1)c1nccs1 :: Fulfilled
CCn1cc(/C=C(\Oc2ccc3c(CN(CCO)CCO)cc(=O)oc3c2)C(=O)c2nccs2)c2ccccc21 :: Fulfilled
O=C(/C(=C/c1ccc(Br)cc1)Oc1ccc2c(CN(CCO)CCO)cc(=O)oc2c1)c1nccs1 :: Not fulfilled
COc1ccc(/C=C(\Oc2ccc3c(CN(CCO)CCO)cc(=O)oc3c2)C(=O)c2nccs2)cc1 :: Fulfilled

Given the entry "Cc1ccc2c(/C=C(\Oc3ccc4c(CN(CCO)CCO)cc(=O)oc4c3)C(=O)c3nccs3)c[nH]c2c1" , would its reported MIC be below 300 µM?
Fulfilled

Please answer likewise for "O=C(/C(=C/c1c[nH]c2ccccc12)Oc1ccc2c(CN(CCO)CCO)cc(=O)oc2c1)c1nccs1"
Not fulfilled

Now consider "O=C(COc1ccc2c(CN(CCO)CCO)cc(=O)oc2c1)c1nccs1" .
Not fulfilled

How about this compound: "O=C(/C(=C/c1ccccc1Cl)Oc1ccc2c(CN(CCO)CCO)cc(=O)oc2c1)c1nccs1"
Not fulfilled

Would you kindly repeat that for CCn1cc(C(=O)O)c(=O)c2cc(F)c(N3CCNCC3)cc21 [NORFLOXACIN] ?
Fulfilled

Also check "O=C(/C(=C/c1ccccc1)Oc1ccc2c(CN(CCO)CCO)cc(=O)oc2c1)c1nccs1"
Not fulfilled

Can you handle "Cc1ccc(/C=C(\Oc2ccc3c(CN(CCO)CCO)cc(=O)oc3c2)C(=O)c2nccs2)cc1" next?
Fulfilled

Also "O=C(/C(=C/c1ccc(Cl)cc1)Oc1ccc2c(CN(CCO)CCO)cc(=O)oc2c1)c1nccs1" ?
Fulfilled

One more compound: "O=C(/C(=C/c1ccc(Cl)cc1Cl)Oc1ccc2c(CN(CCO)CCO)cc(=O)oc2c1)c1nccs1"
Fulfilled

Again, but for "O=C(/C(=C/c1c[nH]c2cc(Cl)ccc12)Oc1ccc2c(CN(CCO)CCO)cc(=O)oc2c1)c1nccs1"
Fulfilled

Also need "O=C(/C(=C/c1ccc(F)cc1)Oc1ccc2c(CN(CCO)CCO)cc(=O)oc2c1)c1nccs1" , thanks.
Fulfilled
